Biological target: NR1C + NR2B (Rattus norvegicus, UniProt P35439+Q00960)
Construct: expressed in transfected cells; host or cells: Xenopus laevis oocytes, nuclear injection of pBC/CMV expression plasmids
Sequence (Q00960 27-1482, other chains not shown): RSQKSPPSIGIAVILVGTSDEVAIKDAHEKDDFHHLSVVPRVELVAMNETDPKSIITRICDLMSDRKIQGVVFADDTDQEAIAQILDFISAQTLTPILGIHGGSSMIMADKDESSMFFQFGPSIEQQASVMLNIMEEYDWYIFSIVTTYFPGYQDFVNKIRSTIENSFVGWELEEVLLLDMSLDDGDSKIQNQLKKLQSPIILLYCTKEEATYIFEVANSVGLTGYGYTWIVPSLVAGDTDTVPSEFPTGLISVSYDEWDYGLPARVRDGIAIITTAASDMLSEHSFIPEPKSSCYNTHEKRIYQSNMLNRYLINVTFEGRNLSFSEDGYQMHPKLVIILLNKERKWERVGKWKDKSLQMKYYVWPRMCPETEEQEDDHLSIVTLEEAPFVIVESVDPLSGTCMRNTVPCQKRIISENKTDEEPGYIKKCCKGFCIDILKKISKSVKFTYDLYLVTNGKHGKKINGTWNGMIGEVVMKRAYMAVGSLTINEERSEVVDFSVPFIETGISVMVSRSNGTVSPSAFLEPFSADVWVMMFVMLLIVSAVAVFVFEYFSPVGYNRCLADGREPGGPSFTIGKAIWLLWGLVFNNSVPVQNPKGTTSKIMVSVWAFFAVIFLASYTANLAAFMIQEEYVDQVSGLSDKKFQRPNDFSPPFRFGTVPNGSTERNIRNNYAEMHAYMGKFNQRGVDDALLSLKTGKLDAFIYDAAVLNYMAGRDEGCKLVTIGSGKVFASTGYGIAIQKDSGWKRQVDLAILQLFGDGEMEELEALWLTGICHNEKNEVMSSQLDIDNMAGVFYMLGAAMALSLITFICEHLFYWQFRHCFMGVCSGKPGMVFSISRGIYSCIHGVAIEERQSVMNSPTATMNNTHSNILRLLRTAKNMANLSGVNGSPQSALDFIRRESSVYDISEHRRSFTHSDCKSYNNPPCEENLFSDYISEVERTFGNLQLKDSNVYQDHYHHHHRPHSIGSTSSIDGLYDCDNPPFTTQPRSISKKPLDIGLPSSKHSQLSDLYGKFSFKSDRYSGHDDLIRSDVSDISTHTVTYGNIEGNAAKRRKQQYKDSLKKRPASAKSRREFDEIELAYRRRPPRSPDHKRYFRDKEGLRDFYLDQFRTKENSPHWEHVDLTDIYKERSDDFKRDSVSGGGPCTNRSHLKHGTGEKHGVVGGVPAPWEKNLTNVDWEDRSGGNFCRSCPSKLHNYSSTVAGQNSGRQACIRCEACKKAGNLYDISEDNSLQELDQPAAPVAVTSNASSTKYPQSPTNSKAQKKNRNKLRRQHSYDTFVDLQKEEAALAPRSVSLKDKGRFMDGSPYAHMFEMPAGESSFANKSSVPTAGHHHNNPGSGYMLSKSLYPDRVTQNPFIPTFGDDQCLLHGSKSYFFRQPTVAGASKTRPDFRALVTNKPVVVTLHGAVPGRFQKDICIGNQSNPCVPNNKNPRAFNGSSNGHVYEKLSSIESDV
Test: Electrophysiology on recombinant NMDA receptors (voltage clamp, Xenopus laevis oocytes), NR1C + NR2B
Format: cell-based
Conditions: 0.1 µM compound; oocytes clamped to -80 mV; 1.3 µM Glu plus 0.07 µM Gly; mean of four to six oocytes
Text: Electrophysiology on recombinant NMDA receptors cDNA clones coding for the subunits NR1C and NR2A of the NMDA receptor (see Hollmann and Heinemann, 1994, Annu. Rev. Neurosci. 17:31 for nomenclature of NMDA receptor subunits) were isolated from a rat brain λgt11 cDNA library as published elsewhere (Sigel et al., 1994, J. Biol. Chem. 269:8204). […] For every oocyte the decrease of the current amplitude was expressed as a percentage of the control current measured before application of the compound. […]
Electrophysiology NR1C + NR2B % block by 0.1 µM by entry:
Your answer is read as %, so omit the unit and give the number.

Looking up Cc1ccc(CC2(O)CCN(C[C@H]3CCc4cc(O)ccc4[C@@H]3O)CC2)cc1.O=C(O)/C=C/C(=O)O (racemic) , I see its Electrophysiology NR1C + NR2B % block by 0.1 µM listed as 91

Looking up Cl.Oc1ccc2c(c1)C[C@@H](CN1CCC(O)(Cc3ccc(Cl)cc3)CC1)O2 , I see its Electrophysiology NR1C + NR2B % block by 0.1 µM listed as 90

Proceed to the following item.
Looking up CCc1ccc(CC2(O)CCN(CC3Cc4cc(O)ccc4O3)CC2)cc1.Cl (racemic) , I see its Electrophysiology NR1C + NR2B % block by 0.1 µM listed as 89
